Assay: NCI Yeast Anticancer Drug Screen. Data for the CLN2oe strain (AID 163);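 also: 0% = growth of vehicle-only control cultures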
Conditions: S. cerevisiae CLN2oe strain, at 1.2 µM, hits give high values
This is part of a sample that, as a whole, favours compounds with a hit. Of some 79,000 tested, about 15% had one in any assay.
In this section, each of the molecules is paired with its reported growth inhibition.

Molecule: Nc1n[n+]([O-])c2ccc(Cl)cc2[n+]1[O-]
growth inhibition (%): 6
//
Molecule: Cc1cccc2c1nc1ccc(Cl)cc1[n+]2C
growth inhibition (%): -5
//
Molecule: CC(C)(C)[Si](C)(C)OCC1CCC(n2cnc3c(NC(=O)c4ccccc4)ncnc32)O1 (stereo not drawn)
growth inhibition (%): -2
//
Molecule: CCCCC/C(=C(\C#N)C(=O)OCC)c1ccccc1
growth inhibition (%): -2
//
Molecule: Cc1nc2c(Br)cc(Br)cc2c(=O)n1-c1ccccc1NC1OCC(O)C(O)C1O (stereo not drawn)
growth inhibition (%): 40
//
Molecule: Cc1sc2ccc3ccccc3c2[n+]1C
growth inhibition (%): -16
//
Molecule: CCCOC(=O)C(F)C(Br)C(=O)OCCC (stereo not drawn)
growth inhibition (%): 48
//
Molecule: NC(N)=NS(=O)(=O)c1ccc(Nc2c3ccccc3nc3c(C(=O)NCCO)cccc23)cc1
growth inhibition (%): 2
//
Molecule: CSc1nnc(SC)nn1
growth inhibition (%): 12
//
Molecule: Oc1ccc(-c2nc(-c3ccc(F)cc3)c(-c3ccc4ccccc4n3)[nH]2)cc1
growth inhibition (%): -5
//
Molecule: CN(C)c1nc(=Nc2cccc(Cl)c2)ss1
growth inhibition (%): -5
//
Molecule: CCOc1ccccc1N=Cc1c2ccccc2cc2ccccc12
growth inhibition (%): 18
//
Molecule: N#CC1=C(N)N(/N=C/c2ccccc2)C(c2ccccc2)C1(C#N)C#N (stereo not drawn)
growth inhibition (%): 25
//
Molecule: CC(C)C(C)/C=C\C(C)C1CCC2C3=CC=C4CC(O)CCC4(C)C3CCC21C (stereo not drawn)
growth inhibition (%): 0
//
Molecule: CC(/C=C/c1ccccc1)=N\NC(N)=S
growth inhibition (%): 7
//
Molecule: Cc1cc(-c2cc(C)c(O)c(C(C)(C)C)c2)cc(C(C)(C)C)c1O
growth inhibition (%): -51
//
Molecule: O=C1C=C(N2CCN(c3ccccn3)CC2)C(=O)c2c(O)ccc(O)c21
growth inhibition (%): 11
//
Molecule: COc1cc(/C=C2\CCC/C(=C\c3ccc(O)c(OC)c3)C2=O)ccc1O
growth inhibition (%): -7

---

Assay: NCI Yeast Anticancer Drug Screen. Data for the mgt1 strain (AID 153)
Details: S. cerevisiae mgt1 mutant growth inhibition; at 33.0 µM
Compounds without any hit were thinned out: in the full panel of roughly 79,000, 15% have a hit. Calls of active or inactive are those of the source. Rule as the data show it: active = growth inhibition above about 70%; inactive = the rest.
Labels: class 1 (active), class 0 (inactive)

Compound: O=[N+]([O-])c1cc(Cl)cnc1Br
Discrete label: class 0

Compound: O=C(COC(=O)c1ccccc1)c1ccc(Br)cc1
Discrete label: class 1

Compound: CCn1c(O)c(C=Nc2ccccc2)s/c1=N/Nc1nc(-c2ccccc2)cs1
Discrete label: class 0

Compound: CC(=O)Nc1ccc(/C=C/[N+](=O)[O-])cc1
Discrete label: class 0

Compound: CCCCOC(=O)Nc1ccc(C)c(NC(=O)OCCCC)c1
Discrete label: class 0

Compound: S=c1[nH]c2cc3ccccc3cc2[nH]1
Discrete label: class 0

Compound: Clc1ccc2c(c1)N(CCCN1CCCC13CCCCC3)c1ccccc1S2
Discrete label: class 0

Compound: O=C(NO)Nc1cc(Cl)cc(Cl)c1
Discrete label: class 1

Compound: CS(=O)(=O)SCc1ccc([N+](=O)[O-])cc1
Discrete label: class 1

Compound: CC(NCCN(C)C)C1CCC2C3CCc4cc(O)ccc4C3CCC12C (stereo not given)
Discrete label: class 1

Compound: CN(C)c1nc(=Nc2cccc(Cl)c2)ss1
Discrete label: class 1

Compound: Cc1cccc(C(C)(C)C)c1NC(=O)C(C#N)C1=C(Cl)C(=O)c2ccccc2C1=O (stereo not given)
Discrete label: class 1

Compound: CC1OC(O[C@H]2/C=C/C=C/C=C/C=C/C=C/C=C/C=C/[C@H](C)[C@@H](O)[C@@H](C)[C@H](C)OC(=O)C[C@H](O)C[C@H](O)CC[C@@H](O)[C@H](O)C[C@H](O)C[C@]3(O)C[C@H](O)[C@@H](C(=O)O)[C@H](C2)O3)C(O)C(N)C1O (stereo not given in full)
Discrete label: class 1

Compound: Nc1nc2ccc(NCc3ccc(C(=O)NC(CCC(=O)O)C(=O)O)cc3)cc2c(=O)[nH]1 (stereo not given)
Discrete label: class 0

Compound: Cc1nc2ccccc2nc1NNc1ccccc1
Discrete label: class 0

---

Experiment: NCI Yeast Anticancer Drug Screen. Data for the rad50 strain (AID 155);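 also: 0% = growth of vehicle-only cultures of the same strain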
Details: S. cerevisiae rad50 strain growth inhibition; at 50.0 µM
Compounds without any hit were thinned out: in the full panel of roughly 79,000, 15% have a hit. Activity calls are given as the source filed them. Rule as the data show it: active = growth inhibition above about 70%; inactive = the rest.
Labels: y = active, n = inactive

Molecule: NC(=S)NC(=S)Nc1ccccc1
Discrete label: n
--
Molecule: CCC1(OC(=O)CN2CCN(CCO)CC2)C(=O)OCc2c1cc1n(c2=O)Cc2cc3ccccc3nc2-1 (stereo not drawn)
Discrete label: n
--
Molecule: COc1cc(O)c2c(c1O)C(=O)c1cc(C)ncc1C2=O
Discrete label: n
--
Molecule: Cc1cc(S(=O)(=O)Nc2nnc3cnc4ccccc4n23)c(S)cc1Cl
Discrete label: n
--
Molecule: COc1oc(C(=O)NC2CCCCC2)c(-c2ccc(Cl)cc2)c1S(=O)(=O)c1ccccc1
Discrete label: y
--
Molecule: CCOC(=O)/C(=C\c1ccc(C#N)cc1)C(C)=O
Discrete label: y
--
Molecule: CCCCCCCCCCCCCCCCOP(=O)(O)OCC(N)C(=O)O (stereo not drawn)
Discrete label: y
--
Molecule: CCCC/C([O-])=C1/C(=O)N(c2ccccc2)N=C1C.CCCC/C([O-])=C1/C(=O)N(c2ccccc2)N=C1C.[Cu+2]
Discrete label: n
--
Molecule: COc1cccc2c1C(=O)c1c(O)c3c(c(O)c1C2=O)C[C@@](O)(C(C)=O)C[C@@H]3OC1CC(OC(C)=O)C(OC(C)=O)C(C)O1 (stereo partly drawn)
Discrete label: n
--
Molecule: C=C1CC(CCCl)(c2ccccc2)OC1=O (stereo not drawn)
Discrete label: y
--
Molecule: CC(C)(C)C1=CC(=CC=C2C=CN(CCCCCCCCCCCO)C=C2)C=C(C(C)(C)C)C1=O
Discrete label: y
--
Molecule: Cc1cc(N(CCOS(C)(=O)=O)CCOS(C)(=O)=O)ccc1C=Nc1ccc(-c2nc(Cc3ccccc3)sc2C)cc1
Discrete label: n
--
Molecule: N=C1N=Nc2nc(C3(c4nc5n(c4O)C(=N)N=N5)Cc4ccccc4C3=O)c(O)n21 (stereo not drawn)
Discrete label: y
--
Molecule: O=[N+]([O-])c1cccc2nc3ccccc3c(NCCC[N+]3([O-])CCCCC3)c12
Discrete label: y
--
Molecule: CC(C)CCCC(C)C1CCC2C3CCC4=CC(=O)/C(=C\O)CC4(C)C3CCC12C (stereo not drawn)
Discrete label: n
--
Molecule: Cc1ccc(S/C(=C\C(=O)O)c2ccccc2)cc1
Discrete label: n
--
Molecule: O=C(/C=C\c1cccc(C(F)(F)F)c1)c1ccccc1
Discrete label: n
--
Molecule: Cc1nc(-c2cc3cc([N+](=O)[O-])ccc3oc2=O)cs1
Discrete label: y
--
Molecule: Cc1cc(O)c(C(C)C)cc1C1(c2cc(C(C)C)c(O)cc2C)OC(=O)c2ccccc21
Discrete label: y
--
Molecule: O/N=C\c1c(O)ccc2ccccc12
Discrete label: n
--
Molecule: COc1cc([C@@H]2c3cc4c(cc3[C@H](OC3OC5COC(C(C)C)OC5C(O)C3O)C3COC(=O)[C@@H]32)OCO4)cc(OC)c1O (stereo partly drawn)
Discrete label: n
--
Molecule: Cc1c2ccnc(C(=O)NCCN(C)C)c2cc2c3cc(O)ccc3n(C)c12
Discrete label: y
--
Molecule: CNC(=O)OCc1c(COC(=O)NC)c(-c2ccc(Cl)c(Cl)c2)n2c1SCC2
Discrete label: n
--
Molecule: O=C(COC(=O)c1ccccc1)c1ccc(Br)cc1
Discrete label: y
--
Molecule: Cn1c(=O)c2c(nc(N)n2C2OC(CO)C(O)C2O)n(C)c1=O (stereo not drawn)
Discrete label: y
--
Molecule: COc1cc(/C=N/Nc2nnc3c4ccccc4c4ncccc4c3n2)cc(OC)c1OC
Discrete label: y
--
Molecule: COc1ccc(NC(=O)CC2SC(=Nc3ccccc3C)NC2=O)c([N+](=O)[O-])c1 (stereo not drawn)
Discrete label: n
--
Molecule: CCCCC(CC)C(=O)[O][Sn]([CH2]CCC)([CH2]CCC)[O]C(=O)C(CC)CCCC (stereo not drawn)
Discrete label: y

---

Assay: NCI Yeast Anticancer Drug Screen. Data for the rad52 strain (AID 147);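 also: 0% = growth of vehicle-treated control cultures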
Conditions: S. cerevisiae rad52 mutant growth inhibition; at 1.2 µM; hits give high values
Method: Growth inhibition of yeast strains with defined genetic alterations is measured as a screen for potential anti-cancer activity. Selected strains with alterations in DNA damage repair or cell cycle control were exposed to compounds and growth inhibition was measured relative to vehicle treated controls. The strain used in this assay is rad52
About 79,000 compounds went through this panel and 15% of them were active in at least one assay; those are over-represented in the sample as a whole.
Would you mind labelling by growth inhibition? At or over 5% is MET, under is NOT MET.

Structure smiles: O=C1N=C2SC=C(NC(=S)Nc3ccccc3)N2NC12c1ccccc1-c1ccccc12
Discrete label: MET
//
Structure smiles: Oc1ccc2ccccc2c1CCc1c(O)ccc2ccccc12
Discrete label: NOT MET
//
Structure smiles: O=[N+]([O-])/C=C/c1cc(Cl)c(/C=C/[N+](=O)[O-])cc1Cl
Discrete label: MET
//
Structure smiles: O=c1ssc(=Nc2ccccc2)n1-c1ccccc1
Discrete label: MET
